// reported IC50 for each item listed
# System: A2058
# run description: Antiproliferative activity against human A2058 cells after 96 hrs by CellTiter-Glo assay
# Type: functional, cell-based
# condition: A2058, 96 h
The answer is to be given in µM; state only the numeric part.

> print(dat)
                                   compound  system  result.units  value.measured
1  CCCCCCCCCCC[C@H](O)[C@@H]1CC[C@@H]([C@H]2CC[C@H]([C@@H](O)CCCCCCCC[C@H](O)CCC3=C[C@H](C)OC3=O)O2)O1 (relative stereo)   A2058            µM             7.2

Challenge: Look up IC50: CCCCCCCCCCCCC[C@H](O)[C@@H]1CC[C@@H]([C@H]2CC[C@H]([C@@H](O)CCCC(O)CCCCCC3=C[C@H](C)OC3=O)O2)O1 (relative stereo)
Response given: 6.6

Measured values drawn from ChEMBL document CHEMBL2021823 for this set.
